# credit: the MegaScale stability set (Tsuboyama et al. 2023)

I'd be grateful if you could share measured folding stability dG for these entries.
B1: r4_43_TrROS_Hall (parent)
chain: DLVTIKVPLENLEEIKKAAEKAGFKIVSISYDKENKEVTIVIEKKK

Variants of: B1
measurementProtocol: folding stability dG (cDNA display proteolysis); higher = more stable
conditionInfo: PBS, room temperature
Numbers only, in kJ/mol.

Previously resolved entries follow.
Q) Given the entry S30Y , report its measured folding stability dG.
A) 16

Q) Need folding stability dG, item N11E
A) 13.7

Q) Which folding stability dG value is on record for I15P ?
A) 6.43

Q) # input variant: G23W ; wanted: its folding stability dG
A) 15.4

Q) Quick one: folding stability dG of F24S ?
A) 11.3

// for each variant below, give its folding stability dG
1. E13L
2. N35E
3. V38T

A)
16.3
14.5
13.5

For each listed entry, give its folding stability dG.
1. K45D
2. V41L
3. V3T
4. D32Q
5. L2Y
6. I26F

A)
1: 16.5; 2: 16.3; 3: 15.3; 4: 14.9; 5: 17.1; 6: 13.8

Give folding stability dG for all variants that follow.
1. S28F
2. E13T

A)
1. 15.8
2. 14.5

Provide the reported folding stability dG of each entry below, same order.
1. N35Y
2. K6Q
3. D32Y
4. K33E
5. D32N

A)
1. 15.6
2. 12.7
3. 15.3
4. 14.4
5. 17
